Source: PubChem BioAssay (NCI)

test system: UO-31 renal; test: NCI-60 one-dose screen, 48 h; settings: 10 µM unless noted
This is part of a sample that, as a whole, favours compounds with a hit. Of some 83,000 tested, about 20% had one in any assay. Activity calls are given as the source filed them. The calls were made as follows: active = growth percent below 10; inactive = the rest.
I would appreciate it if you answered using one of these outcomes: active, inactive

Field: example entries. Status: answers known.
{"compound": "CN1CCN(Cc2ccc(NC(=O)c3cncc(C#Cc4cnc5ccc(NCCCO)nn45)c3)cc2C(F)(F)F)CC1", "target-of-assay": "UO-31 renal", "class-assignment": "active"}
{"compound": "COC(=O)c1[nH]nc2c1C1(C(=O)c3cccc4cccc1c34)C(C#N)=C(N)O2 (centres undefined)", "target-of-assay": "UO-31 renal", "class-assignment": "inactive"}
{"compound": "Cc1nc(-c2ccccc2O)ccc1C(=O)N=Nc1c(O)[nH]c2ccc(Br)cc12", "target-of-assay": "UO-31 renal", "class-assignment": "inactive"}
{"compound": "COc1ccc(NC(=O)Nc2ccc3c(ccn3C(=O)c3cccc(F)c3)c2)cc1", "target-of-assay": "UO-31 renal", "class-assignment": "inactive"}

Exercise: What is the recorded call for this compound in the test? CCOc1ccc(NC2=C(Cl)C(=O)c3nc(C)ccc3C2=O)cc1
Solution: active

Exercise: What is the recorded call for this compound in the test? Nc1nc(-c2cccc([N+](=O)[O-])c2)c(N=Nc2ccc([N+](=O)[O-])cc2Cl)s1
Solution: inactive

Exercise: What is the recorded call for this compound in the test? COc1cc(-c2nn(C(C)(C)C)cc2-c2ccnc(NCCCNS(=O)(=O)c3cccc(F)c3)n2)ccc1Cl
Solution: inactive

Exercise: What is the recorded call for this compound in the test? O=C(CN1CCN(c2cc(=O)[nH]c3ccc(F)cc23)CC1)Nc1ccc(Cl)cc1
Solution: inactive

Exercise: What is the recorded call for this compound in the test? CCOC(=O)C(=O)/C(=C\c1ccc(Cl)cc1)C(=O)N1C(=S)NC(=O)C1CC(C)C (centres undefined)
Solution: inactive

Exercise: What is the recorded call for this compound in the test? COc1ccc([C@@H]2c3[nH]c4ccccc4c3C[C@H]3C(=O)N(C4CCN(CC5CCCCC5)CC4)CC(=O)N23)c(OC)c1
Solution: inactive

Exercise: What is the recorded call for this compound in the test? N/C(=N\C(N)=N\c1nc2ccccc2s1)c1cccc(F)c1
Solution: inactive

Exercise: What is the recorded call for this compound in the test? COc1cc(OC)cc(C(=O)Nc2sc3c(c2C(N)=O)CCC(=O)C3)c1
Solution: inactive

Exercise: What is the recorded call for this compound in the test? NC(N)=Nc1ccc(Oc2cccc(NC(N)=Nc3ccc(Cl)c(C(F)(F)F)c3)c2)cn1
Solution: inactive

Exercise: What is the recorded call for this compound in the test? COc1ccccc1N1CCN(C2=CC(=O)C(C)=C(C)C2=O)CC1
Solution: inactive

Exercise: What is the recorded call for this compound in the test? COc1cc(-c2nn(C(C)(C)C)cc2-c2ccnc(NCCCNS(=O)(=O)c3ccc(C)cc3)n2)ccc1Cl
Solution: inactive

Exercise: What is the recorded call for this compound in the test? COc1cc(OC)c(S(N)(=O)=O)cc1C(=O)/C=C/c1ccc(Cl)cc1
Solution: active

====

tested on: NCI/ADR-RES ovarian; experiment: NCI-60 one-dose screen, 48 h (100 = growth as untreated, 0 = no growth, -100 = all killed); details: 10 µM unless noted
Compounds without any hit were thinned out: in the full panel of roughly 83,000, 20% have a hit.
Parameter threshold = 70%. Response is met when growth meets or exceeds it, else not met.

Field: example entries. Status: answers known.
{"molecule": "COc1cc(/C=C/C(=O)c2ccc(NC(=O)CSc3nnc(-c4ccc(-c5nc6ccc(Cl)cc6[nH]5)cc4)o3)cc2)cc(OC)c1OC", "class-assignment": "met"}
{"molecule": "O=C(CSc1nnc(-c2ccc(Cl)cc2)n1-c1ccccc1)Nc1ccc(Br)cc1", "class-assignment": "not met"}
{"molecule": "O=C(Nc1ccc(F)c(F)c1)c1cc(-c2ccc(F)cc2F)ccc1O", "class-assignment": "not met"}
{"molecule": "COc1ccc(NC(=O)CSc2nnc(-c3ccc4nc(-c5ccc(OC)c(OC)c5)[nH]c4c3)o2)cc1OC", "class-assignment": "met"}
{"molecule": "Cn1ccnc1C(=O)/C=C/c1ccc(NC(=O)c2c(F)c(F)c(F)c(F)c2F)cc1", "class-assignment": "met"}
{"molecule": "Cc1ccc(NC(=O)CNc2cc(C(N)=O)cc(F)c2C)c(Cl)c1", "class-assignment": "met"}
{"molecule": "CCNC(=O)N1CCc2cc(OC)c(OCCc3ccc(OC)nc3)cc2C1c1ccc(OC)cc1C (configuration not stated)", "class-assignment": "not met"}
{"molecule": "CC(=O)c1ccc(Nc2nc(SCC(C)C)nc(-c3ccccc3)c2C#N)cc1", "class-assignment": "met"}
{"molecule": "CC1(C)CC[C@]23CC[C@]4(C)[C@H](CC[C@@H]5[C@@]6(C)CCCN(CO)C(C)(C)[C@@H]6CC[C@]54C)[C@H]2[C@H]1OC3", "class-assignment": "met"}
{"molecule": "N#Cc1c(-c2cccs2)cc(-c2cnccn2)nc1SCC(=O)c1ccc(F)cc1", "class-assignment": "met"}

Exercise: Form field: growth at least 70%? Entry: O=C(NNc1nc2cc(F)ccc2n2c(CO)ccc12)c1cnccn1
Solution: not met

Exercise: Form field: growth at least 70%? Entry: COc1cc(-c2nc(-c3ccccc3)[nH]c2-c2ccnc(NCCCNS(=O)(=O)c3cccc(F)c3)n2)ccc1Cl
Solution: not met

Exercise: Form field: growth at least 70%? Entry: CN(C)CCNC(=O)c1ccc(-c2nc3ccc4[nH]ncc4c3c3c2CCC3)cc1
Solution: met

Exercise: Form field: growth at least 70%? Entry: CCCCCc1ccc(S(=O)(=O)Nc2cccc(-c3csc(NC(=O)CN4CCN(CCO)CC4)n3)c2)cc1
Solution: met

Exercise: Form field: growth at least 70%? Entry: NS(=O)(=O)c1ccc(Nc2nc(N/N=C/c3ccc(Cl)cc3)nc(Nc3ccccc3)n2)cc1
Solution: met

Exercise: Form field: growth at least 70%? Entry: Nc1nc(-c2cccc([N+](=O)[O-])c2)c(N=Nc2cccc([N+](=O)[O-])c2)s1
Solution: not met

Exercise: Form field: growth at least 70%? Entry: C=CCn1c(SCC(=O)Nc2ccc(C(=O)/C=C/c3ccc(Cl)cc3)cc2)nnc1-c1c[nH]c2ccccc12
Solution: met

Exercise: Form field: growth at least 70%? Entry: O=c1[nH]c(Sc2sc3ccc(Cl)cc3c2CBr)nc(=S)[nH]1
Solution: not met

Exercise: Form field: growth at least 70%? Entry: C=CCn1c(-c2nc3ccc(C(=C(C#N)C#N)c4ccccc4)cc3[nH]2)cc2cc(Br)ccc21
Solution: not met

Exercise: Form field: growth at least 70%? Entry: CC(C)(C)c1ccc(-c2nnc(-c3nc4ccccc4nc3Cl)o2)cc1
Solution: met

Exercise: Form field: growth at least 70%? Entry: COc1ccc2c(c1)Oc1nc(N)c(C#N)c(N)c1C2Sc1ccc(C)cc1 (configuration not stated)
Solution: not met

Exercise: Form field: growth at least 70%? Entry: COc1cc2oc(-c3cccc(NC(=O)c4cc(N)ccc4Cl)c3)cc(=O)c2c(OC)c1OC
Solution: met

Exercise: Form field: growth at least 70%? Entry: COc1cc(OC)c(S(N)(=O)=O)cc1C(=O)/C=C/c1ccc(C)cc1
Solution: not met

Exercise: Form field: growth at least 70%? Entry: C=CCn1c(SCC(=O)Nc2ccc(C(=O)/C=C/c3cccc([N+](=O)[O-])c3)cc2)nnc1-c1c[nH]c2ccccc12
Solution: met

Exercise: Form field: growth at least 70%? Entry: NS(=O)(=O)c1ccc(Nc2nc(Nc3ccccc3)nc3nnc(SCC(=O)NC4CCCCC4)n23)cc1
Solution: met

Exercise: Form field: growth at least 70%? Entry: CCOC(=O)c1c(Nc2ccccc2)nn2c(-c3ccc(OC)cc3)ccnc12
Solution: met
